// data source = patent US20260258115A1

EXPERIMENTAL SYSTEM: RSV F on RSV-A2 virus (Respiratory syncytial virus (RSV-A2))
ASSAY TEXT: cell-based or functional assay
MEASURED METRIC: Neutralization IC50 (RSV subtype A)

| BINDER | Neutralization IC50 (RSV subtype A) |
| --- | --- |
| ADI-41324 (antibody, V domains shown) VH: EVQLVESGGGLVQPGGSLRLSCAASGFTVSNNYMRWVRQAPGKGLEWVSVIYSSGSTDYADSVKGRFTISRDNSKNTLYLQMNSLRAEDTAVYYCARERTLFYYDSSGFFDYWGQGTLVTVSS VL: ETTLTQSPGTLSLSPGERATLSCRASQSVDSSYLAWYQQKPGQAPRLLIYGASNRATGIPDRFSGSGSGTDFTLTISRLEPEDFAVYYCQQYGRSLTFGGGTKLEIK | > 25 µg/mL |
| ADI-41254 (antibody, V domains shown) VH: EVQLVESGGGLVQSGGSLRLSCAASGFTFSSYEMNWVRQAPGKGLEWVSYTTNNGRTIYYADSVKGRFTISRDNAKNSLFLQMNGLRAEDTAVYYCARGIQFSRVDYAMDVWGQGTTVTVSS VL: SYELTQPPSVSGTPGQRITISCSGSSSNIASNTVNWYQHLPGTAPKLLIYSDNQRPSGVPDRFSGSKSGTSASLAISGLQSEDEADYYCAIWDDSLNASYVFGTGTKLTVL | > 25 µg/mL |
| ADI-41288 (antibody, V domains shown) VH: EVQLVESGGGLVQPGGSLRLSCAASGFTFSSYAMSWVRQAAGKGLEWVSAISGSGDDTFYADSVKDRFIISRDSSKRKVYLQMNSLRVEDTAVYYCAKTDIMVTFGGVVVDAYYFDHWGQGTLVTVSS VL: ETTLTQSPGTLSLSPGERATLSCRASQFVFRSYLAWYQQRPGQPPRLLIYGASSRATGIPDRFSGRGSGTEFTLTISRLEPEDFAMYYCQHYDSSPPGTFGGGTKVEIK | > 25 µg/mL |
| ADI-41280 (antibody, V domains shown) VH: QVQLVESGPGLVKPSETLALTCTVSGGSLSTYYWSWIRQPPGKGLEWIGYIYYSGTTYYNPSLKSRVTISEDRSKNQFSLKLTSVTAADTAVYYCARHGPKTEFWSAQYYLELWGRGTLVTVSS VL: EIVLTQSPGTLSLSPGERATLSCRASQSVSSDYLAWYQQKPGQAPSLLIYGVSTRATGIPDRISGSGSGTDFTLTISRLEPEDFAVYYCHQYGTSPWTFGQGTKVEIK | > 25 µg/mL |

Next binder, please.
Entry ADI-41313 (antibody, V domains shown) VH: EVQLVESGAEVKKPGASVKVSCKASGYTFNNYDISWVRQAPGQGLEWMGWISTYNGNTNYAQKFQGRATMTTDTSTTTAYMELRSLRSDDSAIYYCARVYCGGDCHNPFFLYFDLWGRGTLVTVSS VL: SYVLTQPLSVSVALGQTARITCGGNNIGSKSVHWYQQKPGQAPLLVIYRDNNRPSGIPERFSGSTSGNTATLTISRAQAGDEADYSCQVWDNSDWVFGGGTKLTVL , Neutralization IC50 (RSV subtype A) reported as > 25 µg/mL
